Source listed as patent US11964973B2.

Property: pIC50; scope: individual molecules
# measurement-target: full length human DGKζ (Homo sapiens (Human), UniProt Q13574)
# Sequence (Q13574 whole entry, looked up): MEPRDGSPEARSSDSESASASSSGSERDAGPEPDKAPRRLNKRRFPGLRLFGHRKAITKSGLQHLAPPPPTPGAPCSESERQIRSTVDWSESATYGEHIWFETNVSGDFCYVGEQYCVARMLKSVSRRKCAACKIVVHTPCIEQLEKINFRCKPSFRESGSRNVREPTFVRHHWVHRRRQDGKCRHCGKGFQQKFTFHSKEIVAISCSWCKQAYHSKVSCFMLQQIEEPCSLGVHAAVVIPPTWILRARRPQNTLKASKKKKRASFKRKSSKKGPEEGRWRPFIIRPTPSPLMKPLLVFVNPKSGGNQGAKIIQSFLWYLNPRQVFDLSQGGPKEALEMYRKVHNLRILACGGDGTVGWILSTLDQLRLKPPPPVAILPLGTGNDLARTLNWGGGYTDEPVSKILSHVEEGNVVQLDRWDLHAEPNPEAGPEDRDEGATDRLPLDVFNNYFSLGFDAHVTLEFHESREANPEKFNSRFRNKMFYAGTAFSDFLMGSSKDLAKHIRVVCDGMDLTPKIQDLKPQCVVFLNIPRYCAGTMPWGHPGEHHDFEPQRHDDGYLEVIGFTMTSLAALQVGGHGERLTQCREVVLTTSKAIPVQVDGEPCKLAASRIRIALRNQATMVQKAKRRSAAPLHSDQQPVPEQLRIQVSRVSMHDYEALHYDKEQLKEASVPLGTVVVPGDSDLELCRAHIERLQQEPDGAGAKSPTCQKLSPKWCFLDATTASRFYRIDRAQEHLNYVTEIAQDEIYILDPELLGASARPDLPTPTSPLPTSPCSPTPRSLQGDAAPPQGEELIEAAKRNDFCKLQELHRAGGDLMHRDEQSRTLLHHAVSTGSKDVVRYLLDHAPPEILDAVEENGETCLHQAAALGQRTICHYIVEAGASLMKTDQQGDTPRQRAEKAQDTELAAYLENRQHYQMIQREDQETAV
# assay-summary: In vitro DGK inhibition assay, Method B (DGKζ LIPGLO, extruded liposomes)
# Assay type: biochemical
# experimental-parameters: liposome (LIPGLO) assay; read-out: DGKζ LIPGLO IC50
Answer as the number alone; pIC50 is minus log10 of concentration in mol/L.

Example results:
| molecule | measurement-target | property-measured | recorded-number |
| --- | --- | --- | --- |
| CCO[C@H]1CN(c2cc(=O)n(C)c3ccc(C#N)nc23)CC[C@@H]1Oc1ncc(OC(C)C)cn1 [Example 380] | full length human DGKζ (Homo sapiens (Human), UniProt Q13574) | pIC50 | 4.85 |
| Cn1c(=O)cc(N2CC[C@@H](Oc3cccc(C(F)(F)F)c3)[C@H](OCC(F)(F)F)C2)c2nc(C#N)ccc21 [Example 393] | full length human DGKζ (Homo sapiens (Human), UniProt Q13574) | pIC50 | 6.42 |
| Cn1c(=O)cc(N2CC[C@@H](Oc3cccc(C(F)(F)F)c3)[C@H](OCCN3CCOCC3)C2)c2nc(C#N)ccc21 | full length human DGKζ (Homo sapiens (Human), UniProt Q13574) | pIC50 | 4.62 |
| C[C@@H]1CN(c2cc(=O)n(C)c3ccc(C#N)nc23)[C@@H](C)CC1N(C)C(=O)c1ccc(F)cc1 (single isomer, unassigned) [Example 283A] | full length human DGKζ (Homo sapiens (Human), UniProt Q13574) | pIC50 | 4.85 |
| COCCO[C@@H]1CN(c2cc(=O)n(C)c3ccc(C#N)nc23)CC[C@H]1Oc1cccc(C(F)(F)F)c1 [Example 389] | full length human DGKζ (Homo sapiens (Human), UniProt Q13574) | pIC50 | 6.57 |

**Query** Fill in: pIC50 of Cn1c(=O)cc(N2CC[C@@H](Oc3cccc(C(F)(F)F)c3)[C@H](OCC(F)(F)F)C2)c2nc(C#N)ccc21 [Example 394] is ___
**Result** 4.29

**Query** Next molecule up: CN(C)CCO[C@@H]1CN(c2cc(=O)n(C)c3ccc(C#N)nc23)CC[C@H]1Oc1cccc(C(F)(F)F)c1 [Example 385]
**Result** 3.89

----------
Property: EC50; scope: individual compounds
# System: Human venous whole blood (IFN-γ)
# assay-summary: Human whole blood IFN-γ assay
# Assay type: cell-based
# experimental-parameters: Homo sapiens, 24 h, human whole blood, anti-CD3 plus anti-CD28, 24 hours; read-out: INFg Whole Blood Normalized Agonist EC50
Report only the number, with the unit µM understood.

**Query** Fill in: EC50 of Cn1c(=O)cc(N2CCC(Oc3ccc4c(c3)CCCC4)CC2)c2nc(C#N)ccc21 [Example 61] is ___
**Result** 8.5

**Query** Next compound up: Cc1ccc(O[C@@H]2CCN(c3cc(=O)n(C)c4ccc(C#N)nc34)C[C@H]2C)cc1 [Example 119]
**Result** 6.6

**Query** Next compound up: Cc1cccc(O[C@@H]2CCN(c3cc(=O)n(C)c4ccc(C#N)nc34)C[C@H]2C)c1 [Example 107]
**Result** 13

**Query** Next compound up: Cn1c(=O)c([N+](=O)[O-])c(N2CCC(Oc3ccc(OC(F)(F)F)cc3)CC2)c2nc(C#N)ccc21 [Example 51]
**Result** 1.7
